- condition: reversed-phase C18 HPLC column, logP, HPLC, C18, acetonitrile/water with formic acid (note a)
metric: chromatographic logP
Please reply with the value in numeric form only.

QUERY: Could you tell me which chromatographic logP is on file for CCS(=O)(=O)N(C)Cc1cc(-c2cnn(-c3c(Cl)cc(C(F)(C(F)(F)F)C(F)(F)F)cc3Cl)c2)ccc1Cl ?
RESULT: 5.21

QUERY: Could you tell me which chromatographic logP is on file for CCC(=O)NCc1cc(-c2cnn(-c3c(Cl)cc(C(F)(C(F)(F)F)C(F)(F)F)cc3SC)c2)ccc1F ?
RESULT: 4.29

QUERY: Could you tell me which chromatographic logP is on file for CC(=O)N(Cc1cc(-c2cnn(-c3c(Cl)cc(C(F)(C(F)(F)F)C(F)(F)F)cc3Cl)c2)ccc1Cl)C(C)=O ?
RESULT: 5.14

QUERY: Could you tell me which chromatographic logP is on file for CC(=S)NCc1cc(-c2cnn(-c3c(Cl)cc(C(F)(C(F)(F)F)C(F)(F)F)cc3Cl)c2)ccc1Cl ?
RESULT: 4.98

QUERY: Could you tell me which chromatographic logP is on file for CC(=O)NCc1cc(-c2cn(-c3c(Cl)cc(C(F)(C(F)(F)F)C(F)(F)F)cc3Cl)nn2)ccc1Cl ?
RESULT: 3.94

QUERY: Could you tell me which chromatographic logP is on file for CC(=O)NCc1cc(-c2cnn(-c3c(Cl)cc(C(F)(C(F)(F)F)C(F)(F)F)cc3Cl)c2)ccc1Cl ?
RESULT: 4.13

QUERY: Could you tell me which chromatographic logP is on file for CCC(=O)NCc1cc(-c2cnn(-c3c(Cl)cc(C(F)(C(F)(F)F)C(F)(F)F)cc3[S+](C)[O-])c2)ccc1F (stereo not shown) ?
RESULT: 3.52

* * *

- System: Ctenocephalides felis
- measurement.description: Ctenocephalides felis oral test
- Assay type: in vivo
- condition: 100 ppm in citrated cattle blood; after 2 days
metric: efficacy (rate of extermination) (%)
Number in %, nothing else.

QUERY: Could you tell me which efficacy (rate of extermination) is on file for N#Cc1cc(C(F)(C(F)(F)F)C(F)(F)F)cc(Cl)c1-n1cc(-c2ccc(F)c(CNC(=O)C3CC3)c2)cn1 ?
RESULT: 100

QUERY: Could you tell me which efficacy (rate of extermination) is on file for CCC(=O)NCc1cccc(-c2cnn(-c3c(Cl)cc(C(F)(C(F)(F)F)C(F)(F)F)cc3Cl)c2)c1F ?
RESULT: 100

QUERY: Could you tell me which efficacy (rate of extermination) is on file for O=C(CC(F)(F)F)NCc1cc(-c2cnn(-c3c(Cl)cc(C(F)(C(F)(F)F)C(F)(F)F)cc3Cl)c2)ccc1Cl ?
RESULT: 100

QUERY: Could you tell me which efficacy (rate of extermination) is on file for CCC(=O)NC1CCc2ccc(-c3cnn(-c4c(Cl)cc(C(F)(C(F)(F)F)C(F)(F)F)cc4C(F)(F)F)c3)cc21 (centres unmarked) ?
RESULT: 100

QUERY: Could you tell me which efficacy (rate of extermination) is on file for CC(=O)NCc1cccc(-c2cnn(-c3c(Cl)cc(C(F)(C(F)(F)F)C(F)(F)F)cc3OC(F)(F)F)c2)c1 ?
RESULT: 100

QUERY: Could you tell me which efficacy (rate of extermination) is on file for CC(=O)NCc1cc(-c2cnn(-c3c(C)cc(C(F)(C(F)(F)F)C(F)(F)F)cc3Cl)c2)ccc1F ?
RESULT: 100

QUERY: Could you tell me which efficacy (rate of extermination) is on file for CCC(=O)NCc1cc(-c2cnn(-c3c(Cl)cc(C(F)(C(F)(F)F)C(F)(F)F)cc3C(F)F)c2)ccc1Cl ?
RESULT: 100

QUERY: Could you tell me which efficacy (rate of extermination) is on file for CCC(=O)NCc1cc(-c2cnn(-c3c(C)cc(C(F)(C(F)(F)F)C(F)(F)F)cc3Cl)c2)ccc1F ?
RESULT: 100

QUERY: Could you tell me which efficacy (rate of extermination) is on file for CCC(=O)NCc1cccc(-c2cnn(-c3c(C)cc(C(F)(C(F)(F)F)C(F)(F)F)cc3C)c2)c1 ?
RESULT: 100

QUERY: Could you tell me which efficacy (rate of extermination) is on file for CC(=O)NCc1cc(-c2cnn(-c3c(Cl)cc(C(F)(C(F)(F)F)C(F)(F)F)cc3Cl)c2)ccc1C(F)(F)F ?
RESULT: 100

QUERY: Could you tell me which efficacy (rate of extermination) is on file for CC(=O)N(C)Cc1cc(-c2cnn(-c3c(Cl)cc(C(F)(C(F)(F)F)C(F)(F)F)cc3Cl)c2)cnc1Cl ?
RESULT: 100

QUERY: Could you tell me which efficacy (rate of extermination) is on file for CC(=O)NCc1cc(-c2cnn(-c3c(Cl)cc(C(F)(C(F)(F)F)C(F)(F)F)cc3C(F)F)c2)ccc1Cl ?
RESULT: 100

QUERY: Could you tell me which efficacy (rate of extermination) is on file for CCC(=O)NCc1cc(-c2cnn(-c3c(Cl)cc(C(F)(C(F)(F)F)C(F)(F)F)cc3Cl)c2)ccc1F ?
RESULT: 100

QUERY: Could you tell me which efficacy (rate of extermination) is on file for O=C(CC(F)(F)F)NCc1cc(-c2cnn(-c3c(Cl)cc(C(F)(C(F)(F)F)C(F)(F)F)cc3OC(F)(F)F)c2)ccc1F ?
RESULT: 100

QUERY: Could you tell me which efficacy (rate of extermination) is on file for CSc1cc(C(F)(C(F)(F)F)C(F)(F)F)cc(Cl)c1-n1cc(-c2ccc(F)c(CNC(C)=O)c2)cn1 ?
RESULT: 100

QUERY: Could you tell me which efficacy (rate of extermination) is on file for CCC(=O)NCc1cccc(-c2cnn(-c3c(Cl)cc(C(F)(C(F)(F)F)C(F)(F)F)cc3C(F)(F)F)c2)c1F ?
RESULT: 100

QUERY: Could you tell me which efficacy (rate of extermination) is on file for CCC(=O)NC1CCc2ccc(-c3cnn(-c4c(Cl)cc(C(F)(C(F)(F)F)C(F)(F)F)cc4OC(F)(F)F)c3)cc21 (centres unmarked) ?
RESULT: 100

QUERY: Could you tell me which efficacy (rate of extermination) is on file for O=C(NCc1cc(-c2cnn(-c3c(Cl)cc(C(F)(C(F)(F)F)C(F)(F)F)cc3Cl)c2)ccc1Cl)C1CC1 ?
RESULT: 100

QUERY: Could you tell me which efficacy (rate of extermination) is on file for CCC(=O)NCc1cc(-c2cnn(-c3c(Cl)cc(C4(C(F)(F)F)CC4)cc3Cl)c2)ccc1Cl ?
RESULT: 100

QUERY: Could you tell me which efficacy (rate of extermination) is on file for C=CCN(Cc1cc(-c2cnn(-c3c(Cl)cc(C(F)(C(F)(F)F)C(F)(F)F)cc3Cl)c2)ccc1Cl)C(C)=O ?
RESULT: 100

QUERY: Could you tell me which efficacy (rate of extermination) is on file for CCC(=O)NCc1cc(-c2cnn(-c3c(Cl)cc(C(F)(C(F)(F)F)C(F)(F)F)cc3Cl)c2)ccc1C(F)(F)F ?
RESULT: 100

QUERY: Could you tell me which efficacy (rate of extermination) is on file for O=C(NCc1cc(-c2cnn(-c3c(Cl)cc(C(F)(C(F)(F)F)C(F)(F)F)cc3OC(F)F)c2)ccc1Cl)C1CC1 ?
RESULT: 100

QUERY: Could you tell me which efficacy (rate of extermination) is on file for N#Cc1cc(C(F)(C(F)(F)F)C(F)(F)F)cc(Cl)c1-n1cc(-c2cccc(CNC(=O)C3CC3)c2)cn1 ?
RESULT: 100

QUERY: Could you tell me which efficacy (rate of extermination) is on file for CC(=O)NCc1cccc(-c2cnn(-c3c(Cl)cc(C(F)(C(F)(F)F)C(F)(F)F)cc3C(F)F)c2)c1F ?
RESULT: 100

QUERY: Could you tell me which efficacy (rate of extermination) is on file for CC(=O)N(C)Cc1cc(-c2cnn(-c3c(Cl)cc(C(F)(C(F)(F)F)C(F)(F)F)cc3OC(F)(F)F)c2)ccc1F ?
RESULT: 100

QUERY: Could you tell me which efficacy (rate of extermination) is on file for CS(=O)(=O)NCc1cc(-c2cnn(-c3c(Cl)cc(C(F)(C(F)(F)F)C(F)(F)F)cc3Cl)c2)ccc1Cl ?
RESULT: 100

QUERY: Could you tell me which efficacy (rate of extermination) is on file for CCC(=O)N(C)Cc1cc(-c2cnn(-c3c(Cl)cc(C(F)(C(F)(F)F)C(F)(F)F)cc3Cl)c2)ccc1F ?
RESULT: 100

QUERY: Could you tell me which efficacy (rate of extermination) is on file for CCC(=O)NCc1cc(-c2cnn(-c3c(Cl)cc(C(F)(C(F)(F)F)C(F)(F)F)cc3Cl)c2)cnc1Cl ?
RESULT: 100

QUERY: Could you tell me which efficacy (rate of extermination) is on file for CC(=O)NCc1cc(-c2cnn(-c3c(C)cc(C(F)(C(F)(F)F)C(F)(F)F)cc3Cl)c2)ccc1C ?
RESULT: 100
